Source listed as patent US20120207760A1.

- Assay System: recombinant homotrimeric HA, A/chicken/Vietnam/NCVD-016/08 H5N1 (Influenza A virus A/chicken/Vietnam/NCVD-016/08 (H5N1))
- Assay Summary: trimeric HA microarray, transfection set 2
- Stated Conditions: remark: other sources report otherwise
Quick rule for you: Trimeric HA Binding RLU under 20000 RLU gets true, anything else gets false.

Binder	Class Name
TCN-522 (3212_I12) (antibody, V domains shown) VH: QVQLQQWGAGLLKPSETLSLTCTVSGGSLTDYSWNWIRQPPGKGLEWIGDTLHNGYTNYNPSLRGRVSISIDTSKNQVSLRLTSVTAADTALYYCARGSGGYGGFDYFGKLRTWDFWGQGTLVTVSS VL: DIQLTQSPSSLSASVGDRVTITCRASQGIRNDLGWYQQKPGNAPKRLIFGASSLQSGVPSRFSGSGSGTEFTLTISSLQPEDFATYYCLQHNSYPYTFGQGTKLEIK	false
TCN-528 (5087_P17) (antibody, V domains shown) VH: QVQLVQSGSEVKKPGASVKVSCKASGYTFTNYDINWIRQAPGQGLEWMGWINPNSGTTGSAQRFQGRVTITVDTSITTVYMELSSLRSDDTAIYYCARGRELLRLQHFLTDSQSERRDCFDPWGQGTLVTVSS VL: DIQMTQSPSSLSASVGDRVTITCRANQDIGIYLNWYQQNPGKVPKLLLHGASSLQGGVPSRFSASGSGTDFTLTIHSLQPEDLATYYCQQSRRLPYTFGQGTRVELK	false
TCN-563 (5237_B21) (antibody, V domains shown) VH: QVQLAQSGAEVKRPGSSVKVSCTASGGIFRKNAISWVRQAPGQGLEWMGGIIAVFNTANYAQKFQGRVKITADESGNTAYMELSSLRSDDTAVYYCASHPKYFYGSGSYPDFWGQGTLVTVSS VL: QSALTQPRSVSGSPGQSVTISCTGSSSDVGASNSVSWYQQHPGKAPKLVIYDVTERPSGVPHRFSGSKSGNTASLTVSGLQPEDEADYFCCAYGGKYLVVFGGGTKVTVL	false
TCN-504 (3251_K17) (antibody, V domains shown) VH: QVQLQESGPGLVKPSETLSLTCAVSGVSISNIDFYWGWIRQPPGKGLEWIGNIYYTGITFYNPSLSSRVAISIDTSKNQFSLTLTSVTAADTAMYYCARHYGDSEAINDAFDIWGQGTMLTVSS VL: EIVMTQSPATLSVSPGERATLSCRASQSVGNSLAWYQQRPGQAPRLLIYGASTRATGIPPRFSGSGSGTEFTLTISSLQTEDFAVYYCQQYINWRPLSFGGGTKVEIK	false
TCN-523 (5248_A17) (antibody, V domains shown) VH: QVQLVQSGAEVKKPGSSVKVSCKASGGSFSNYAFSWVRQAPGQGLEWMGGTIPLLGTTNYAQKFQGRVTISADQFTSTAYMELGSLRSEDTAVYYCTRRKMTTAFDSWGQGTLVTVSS VL: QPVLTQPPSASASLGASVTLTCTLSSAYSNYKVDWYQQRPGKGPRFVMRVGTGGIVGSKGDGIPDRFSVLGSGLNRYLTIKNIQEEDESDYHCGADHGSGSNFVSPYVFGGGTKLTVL	true
